Reference for the values: patent US11396497B2

Biological target: trypsin-like activity of the 26S proteasome (Homo sapiens)
Construct: endogenous in cells; host or cells: Jurkat (ATCC TIB-152, E6-1 clone) cell lysate
Sequence (Q99436 44-277): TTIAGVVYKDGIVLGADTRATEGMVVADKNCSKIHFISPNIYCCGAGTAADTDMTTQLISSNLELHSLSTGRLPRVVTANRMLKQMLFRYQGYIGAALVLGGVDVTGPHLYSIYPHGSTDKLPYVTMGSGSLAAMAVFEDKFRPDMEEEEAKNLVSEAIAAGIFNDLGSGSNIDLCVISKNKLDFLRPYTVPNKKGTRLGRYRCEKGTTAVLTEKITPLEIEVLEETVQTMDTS
Assay: Proteasome assay, trypsin-like (T-L) activity, SUC-RLR-AMC, Jurkat cell lysate
Type: biochemical
Details: Table 3, P2/P3 analogues; ± S.D.; read-out: Proteasome Inhibition T-L-like IC50
Protocol: The lysate was stored at −80° C. until the sample was used for the proteasome assay. The compounds were diluted with lysis buffer; 10 μL of the compound-containing solution was added to the test wells at ten times the final concentration. […] The results are reported as the average of at least 3 technical replicates of IC50 values for proteasome inhibition.
property-measured: pIC50
# pIC50 = -log10(concentration in molar units)

CC[C@H](C)[C@@H]1C(=O)O[C@H]1C(=O)N[C@H](C(=O)N[C@H](C(=O)OCc1ccccc1)C(C)(C)C)C(C)(C)C [Compound 10g] : 5.34

INPUT: Could you please provide reported pIC50 for CC[C@H](C)[C@@H]1C(=O)O[C@H]1C(=O)N[C@H](C(=O)N[C@@H](CC(C)C)C(=O)OCc1ccccc1)C(C)C [Compound 10i] ? Thanks!
OUTPUT: 5.87

INPUT: Look up and report measured pIC50 for this entry: CC[C@H](C)[C@@H]1C(=O)O[C@H]1C(=O)N[C@@H](Cc1ccccc1)C(=O)N[C@H](C(=O)OCc1ccccc1)C(C)C [Compound 10b]
OUTPUT: 5.42

INPUT: Report pIC50, nothing else, for this compound: CC[C@H](C)[C@@H]1C(=O)O[C@H]1C(=O)N[C@@H](Cc1ccccc1)C(=O)N[C@@H](Cc1ccccc1)C(=O)OCc1ccccc1 [Compound 10d]
OUTPUT: 5.52

INPUT: # return recorded pIC50 for entry CC[C@H](C)[C@@H]1C(=O)O[C@H]1C(=O)N[C@H](C(=O)N[C@@H](Cc1ccccc1)C(=O)OCc1ccccc1)C(C)C [Compound 10c]
OUTPUT: 5.78

INPUT: Return the recorded pIC50 value; entry: CC[C@H](C)[C@@H]1C(=O)O[C@H]1C(=O)N[C@@H](CC(C)C)C(=O)N[C@H](C(=O)OCc1ccccc1)C(C)C [Compound 10h]
OUTPUT: 5.59

----------
IC50 reference
Target: yeast proteasome yβ1 subunit (Saccharomyces cerevisiae, UniProt P25043+P38624)
Construct: measured using 8 μg/mL of purified yCP or iCP
Assay: Subunit selectivity, purified yeast proteasome yβ1
Assay type: biochemical
Write the value in nM as a bare number.

CC[C@H](C)[C@@H]1C(=O)O[C@H]1C(=O)N[C@H](C(=O)N[C@H](C(=O)NCc1ccccc1)C(C)C)C(C)C [Compound 11e] : 1380

Let's switch to this compound now.
INPUT: // Input: CC[C@H](C)[C@@H]1C(=O)O[C@H]1C(=O)N[C@H](C(=O)N[C@@H](COCc1ccccc1)C(=O)OCc1ccccc1)C(C)C [Compound 10k] . Output its IC50 only.
OUTPUT: 17800
